- system-name: cysteine-rich domain of the murine macrophage mannose receptor (Cys-MR) (Mus musculus, UniProt Q61830)
- Sequence (Q61830 20-154): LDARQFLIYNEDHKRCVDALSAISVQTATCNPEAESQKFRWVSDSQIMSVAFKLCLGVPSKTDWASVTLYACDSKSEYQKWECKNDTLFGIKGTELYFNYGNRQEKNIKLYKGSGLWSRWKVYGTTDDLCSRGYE
- assay-notes: microwell inhibition of Cys-MR-Fc binding to immobilized human lutropin
readout: IC50

>>> result("CC(=O)N[C@H]1C(O)O[C@H](CO)[C@H](OS(=O)(=O)O)[C@@H]1O (stereo partly shown)")
"180 µM"

----------
- system-name: cysteine-rich domain of the murine macrophage mannose receptor (Cys-MR) (Mus musculus)
- assay-notes: microwell inhibition of Cys-MR-Fc binding to immobilized human lutropin
readout: IC50 (mM)

>>> result("CC(=O)N[C@H]1C(O)O[C@H](COS(=O)(=O)O)[C@H](O)[C@@H]1O (stereo partly shown)")
1.3
